Entry source: patent US4124369A

Test system: Erysiphe graminis var. hordei
Test: Powdery mildew of barley test/systemic (seed treatment)
Assay type: in vivo, Erysiphe graminis var. hordei on barley
Conditions: 25% by weight active compound in the dressing, 10 g dressing/kg of seed, systemic, 0% = no infection
If the reported Infection in % of the untreated control equals or exceeds 50%, assign YES. If not, assign NO.

compound="CC(C)(C)C(=O)C(NC(=O)c1ccccc1Cl)n1ccnc1 (centres unmarked)" answer_label=YES
compound="CC(C)(C)C(=O)C(NC(=O)Cc1ccccc1)n1cncn1 (centres unmarked) [drawing 34]" answer_label=NO
compound="CC(C)(C)C(O)C(NC(=O)c1cc(Cl)ccc1Cl)n1cncn1 (centres unmarked) [drawing 33]" answer_label=NO
compound="CC(C)(C)C(=O)C(NC(=O)c1ccccc1Cl)n1cncn1 (centres unmarked) [drawing 29]" answer_label=NO
compound="c1ccc(C(c2ccccc2)(c2ccccc2)n2cncn2)cc1 [drawing 27, reference compound]" answer_label=YES
compound="CC(C)(C)C(O)C(NC(=O)c1ccccc1)n1cncn1 (centres unmarked) [drawing 35]" answer_label=NO
compound="CC(C)(C)C(=O)C(NC(=O)c1ccccc1)n1cncn1 (centres unmarked) [drawing 30]" answer_label=NO
compound="CC(C)(C)C(=O)NC(C(=O)C(C)(C)C)n1cncn1 (centres unmarked)" answer_label=NO
compound="CC(C)(C)C(O)C(NC(=O)c1ccccc1Cl)n1ccnc1 (centres unmarked) [drawing 31]" answer_label=YES
